conditions: in n-pentanol, 293.15 K
Observable: solubility (mole fraction)
# respond with the number and nothing more

The molecule listed as O=C1C(CCS(=O)c2ccccc2)C(=O)N(c2ccccc2)N1c1ccccc1 (stereo unspecified) has a reported solubility (mole fraction) of 0.00429

====

details: in isopropanol, 283.15 K
Observable: solubility (mole fraction)
# respond with the number and nothing more

The compound listed as O=C1C(CCS(=O)c2ccccc2)C(=O)N(c2ccccc2)N1c1ccccc1 (stereo unspecified) has a reported solubility (mole fraction) of 0.000256

====

settings: in 2-butanone, 283.15 K
Observable: solubility (mole fraction)
# respond with the number and nothing more

The compound listed as O=C1C(CCS(=O)c2ccccc2)C(=O)N(c2ccccc2)N1c1ccccc1 (stereo unspecified) has a reported solubility (mole fraction) of 0.0136
